- Test system: HUVEC/MSC spheroids viability
- ASSAY_NAME: Human HUVEC/MSC cell line growth inhibition [KRAS2];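 also: percent of DMSO vehicle control luminescence so 100% = untreated viability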
- EXPERIMENTAL_SETUP: second compound 10 µM; first compound 3.16 µM; stronger effect = lower value
Listing of entries alongside the reported viability, T/C.
Write down the numeric answer in % and omit the unit.

Take a look at these entries with their results.
CC(C)NCC(C(=O)N1CCN(c2ncnc3c2C(C)CC3O)CC1)c1ccc(Cl)cc1 (stereo not given) + COc1cc2nc(C)nc(NC(C)c3cc(N)cc(C(F)(F)F)c3)c2cc1OC1CCOC1 yielded viability, T/C of 42.5

GET /value?item= COc1cc2nccc(Oc3ccc(NC(=O)C4(C(=O)Nc5ccc(F)cc5)CC4)cc3)c2cc1OC + CC1OCC2(CCN(c3cnc(Sc4ccnc(N)c4Cl)c(N)n3)CC2)C1N &field=viability, T/C returns 50.7

Lab note: measured viability, T/C of CC1(C)CCC(CN2CCN(c3ccc(C(=O)NS(=O)(=O)c4ccc(NCC5CCOCC5)c([N+](=O)[O-])c4)c(Oc4cnc5[nH]ccc5c4)c3)CC2)=C(c2ccc(Cl)cc2)C1 + CC1OCC2(CCN(c3cnc(Sc4ccnc(N)c4Cl)c(N)n3)CC2)C1N was 40.9

The recorded viability, T/C for entry CCNC(=O)CC1N=C(c2ccc(Cl)cc2)c2cc(OC)ccc2-n2c(C)nnc21 (stereo not given) + CC1OCC2(CCN(c3cnc(Sc4ccnc(N)c4Cl)c(N)n3)CC2)C1N equals 49.6

Further cases:
# viability, T/C (compound: CC(C)NCC(C(=O)N1CCN(c2ncnc3c2C(C)CC3O)CC1)c1ccc(Cl)cc1 (stereo not given) + CNCc1ccccc1-c1csc(C(C)Nc2nc(C)nc3cc(OC)c(OC)cc23)c1 ) is 0.39

---

Reported viability, T/C values are given for each entry in this list.
- Tested on: HUVEC/MSC spheroids viability
- ASSAY_NAME: Human HUVEC/MSC cell line growth inhibition [KRAS2];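 also: percent of DMSO vehicle control luminescence so 100% = untreated viability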
- EXPERIMENTAL_SETUP: second compound 0.316 µM; first compound 0.03 µM; stronger effect = lower value

Given item CC1COCCN1c1cc(-c2ccnn2C)c2ccnc(-c3ccn[nH]3)c2n1 (stereo not drawn) + CC1OCC2(CCN(c3cnc(Sc4ccnc(N)c4Cl)c(N)n3)CC2)C1N , the value recorded as its viability, T/C is 101%

Sample CC1COCCN1c1cc(-c2ccnn2C)c2ccnc(-c3ccn[nH]3)c2n1 (stereo not drawn) + C=CC(=O)N1CCN(c2nc(=O)n(-c3c(C)ccnc3C(C)C)c3nc(-c4c(O)cccc4F)c(F)cc23)C(C)C1 ; viability, T/C observed: 105%

Continuing:
// field: viability, T/C; key: CC(=O)OC12COC1CC(O)C1(C)C(=O)C(O)C3=C(C)C(OC(=O)C(O)C(NC(=O)OC(C)(C)C)c4ccccc4)CC(O)(C(OC(=O)c4ccccc4)C21)C3(C)C (stereo not drawn) + C=CC(=O)N1CCN(c2nc(=O)n(-c3c(C)ccnc3C(C)C)c3nc(-c4c(O)cccc4F)c(F)cc23)C(C)C1 ; value = 58.9%

---

- Tested on: HUVEC/MSC spheroids viability
- ASSAY_NAME: Human HUVEC/MSC cell line growth inhibition [KRAS2];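 also: percent of DMSO vehicle control luminescence so 100% = untreated viability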
- EXPERIMENTAL_SETUP: second compound 3.16 µM; first compound 10 µM; stronger effect = lower value
- Excerpt: Multicellular complex tumor spheroid response to RAS pathway inhibitors in combination with a targeted agents in patient-derived cell lines with oncogenic KRAS variants from multiple cancer types A high-throughput screen of multi-cell type tumor spheroids was designed to identify active combinations of targeted small molecules and KRAS pathway inhibitors. […] Compounds. […] If the clinical Cmax for an agent had not been determined, the highest concentration tested was 10 microM. […]
Rule: viability, T/C below 50% gives Y, anything at or above gives N.

These solved cases illustrate the format of a correct answer.
is_below(viability, T/C, 50%) for CC(C)NCC(C(=O)N1CCN(c2ncnc3c2C(C)CC3O)CC1)c1ccc(Cl)cc1 (stereo not given) + COc1cc2nc(C)nc(NC(C)c3cc(N)cc(C(F)(F)F)c3)c2cc1OC1CCOC1 ?
Y

Field: below-cutoff. Rule: recorded viability, T/C strictly less than 50%. Subject: O=C(c1cc(Cc2n[nH]c(=O)c3ccccc23)ccc1F)N1CCN(C(=O)C2CC2)CC1 + COc1cc2nc(C)nc(NC(C)c3cc(N)cc(C(F)(F)F)c3)c2cc1OC1CCOC1
N

Determine if CC(C)NCC(C(=O)N1CCN(c2ncnc3c2C(C)CC3O)CC1)c1ccc(Cl)cc1 (stereo not given) + C=CC(=O)N1CCN(c2nc(=O)n(-c3c(C)ccnc3C(C)C)c3nc(-c4c(O)cccc4F)c(F)cc23)C(C)C1 shows viability, T/C strictly lower than 50%.
N

Consider the compound CC1OCC2(CCN(c3cnc(Sc4ccnc(N)c4Cl)c(N)n3)CC2)C1N (stereo not given) + COc1cc2nc(C)nc(NC(C)c3cc(N)cc(C(F)(F)F)c3)c2cc1OC1CCOC1 . Is its viability, T/C strictly less than 50%?
Y

From here, focus on the item given below.
Determine if COc1cc(Nc2ncc3c(n2)-c2ccc(Cl)cc2C(c2c(F)cccc2OC)=NC3)ccc1C(=O)O + CC1OCC2(CCN(c3cnc(Sc4ccnc(N)c4Cl)c(N)n3)CC2)C1N shows viability, T/C strictly lower than 50%.
Y

// data source = PubChem BioAssay AID2060912
